Source listed as paper PMC11536634.

molecular target: DYRK1A (Homo sapiens, UniProt Q13627)
value.type: IC50 (nM)

molecule	meas.value
O=C1CC(c2c[nH]c3nccnc23)NN1 (stereo not shown)	949
